# credit: patent US10815210B2

target: human SGLT2 (Homo sapiens, UniProt P31639); construct: expressed in transfected cells; host or cells: CHO-K1; test: SGLT2 assay: Na-dependent 14C-AMG uptake in CHO-K1 cells stably expressing human SGLT2; type: cell-based; conditions: at 0.03 μM
Measured attribute: inhibition at 0.03 µM (%)

Please review the entries below; each comes with its answer.
Cpd smiles: Cc1cc(OC(F)(F)F)c([C@@H]2O[C@H](CO)[C@@H](O)[C@H](O)[C@H]2O)cc1Cc1ccc2c(c1)CC2
inhibition at 0.03 µM [%]: 57
--
Cpd smiles: Cc1cc(OC(F)F)c([C@@H]2O[C@H](CO)[C@@H](O)[C@H](O)[C@H]2O)cc1Cc1ccc2c(c1)CC2
inhibition at 0.03 µM [%]: 84
--
Cpd smiles: OC[C@H]1O[C@@H](c2ccc(Cl)c(Cc3ccc4c(c3)CC4)c2)[C@H](O)[C@@H](O)C1(F)F
inhibition at 0.03 µM [%]: 26
--
Cpd smiles: COc1cc(OC(F)(F)F)c([C@@H]2O[C@H](CO)[C@@H](O)[C@H](O)[C@H]2O)cc1Cc1ccc2c(c1)CC2
inhibition at 0.03 µM [%]: 72
--
Cpd smiles: CCc1cc(OC(F)(F)F)c([C@@H]2O[C@H](CO)[C@@H](O)[C@H](O)[C@H]2O)cc1Cc1ccc2c(c1)CC2
inhibition at 0.03 µM [%]: 45
--
Cpd smiles: Cc1c(Cc2ccc3c(c2)CC3)ccc(O)c1[C@@H]1O[C@H](CO)[C@@H](O)[C@H](O)[C@H]1O
inhibition at 0.03 µM [%]: 40
--
Cpd smiles: OC[C@H]1O[C@@H](c2ccc(F)c(Cc3ccc4c(c3)CC4)c2)[C@H](O)[C@@H](O)[C@@H]1O
inhibition at 0.03 µM [%]: 70
--
Cpd smiles: OC[C@H]1O[C@@H](c2cc(Cc3ccc4c(c3)CC4)c(Cl)cc2OC(F)F)[C@H](O)[C@@H](O)[C@@H]1O
inhibition at 0.03 µM [%]: 84
--
Cpd smiles: OC[C@H]1O[C@@H](c2cccc(Cc3ccc4c(c3)CC4)c2)[C@H](O)[C@@H](O)[C@@H]1O
inhibition at 0.03 µM [%]: 23
--
Cpd smiles: COc1cc(F)c(Cc2ccc3c(c2)CC3)cc1[C@@H]1O[C@H](CO)[C@@H](O)[C@H](O)[C@H]1O
inhibition at 0.03 µM [%]: 77

I: COc1cc(C#N)c(Cc2ccc3c(c2)CC3)cc1[C@@H]1O[C@H](CO)[C@@H](O)[C@H](O)[C@H]1O
II: COc1cc(N(C)C)c(Cc2ccc3c(c2)CC3)cc1[C@@H]1O[C@H](CO)[C@@H](O)[C@H](O)[C@H]1O
For the pair I and II , which entry has the numerically smaller recorded inhibition at 0.03 µM? In your reply, give the label of the chosen option.
II

###

Target: human SGLT2 (Homo sapiens)
Sequence (P31639 1-672): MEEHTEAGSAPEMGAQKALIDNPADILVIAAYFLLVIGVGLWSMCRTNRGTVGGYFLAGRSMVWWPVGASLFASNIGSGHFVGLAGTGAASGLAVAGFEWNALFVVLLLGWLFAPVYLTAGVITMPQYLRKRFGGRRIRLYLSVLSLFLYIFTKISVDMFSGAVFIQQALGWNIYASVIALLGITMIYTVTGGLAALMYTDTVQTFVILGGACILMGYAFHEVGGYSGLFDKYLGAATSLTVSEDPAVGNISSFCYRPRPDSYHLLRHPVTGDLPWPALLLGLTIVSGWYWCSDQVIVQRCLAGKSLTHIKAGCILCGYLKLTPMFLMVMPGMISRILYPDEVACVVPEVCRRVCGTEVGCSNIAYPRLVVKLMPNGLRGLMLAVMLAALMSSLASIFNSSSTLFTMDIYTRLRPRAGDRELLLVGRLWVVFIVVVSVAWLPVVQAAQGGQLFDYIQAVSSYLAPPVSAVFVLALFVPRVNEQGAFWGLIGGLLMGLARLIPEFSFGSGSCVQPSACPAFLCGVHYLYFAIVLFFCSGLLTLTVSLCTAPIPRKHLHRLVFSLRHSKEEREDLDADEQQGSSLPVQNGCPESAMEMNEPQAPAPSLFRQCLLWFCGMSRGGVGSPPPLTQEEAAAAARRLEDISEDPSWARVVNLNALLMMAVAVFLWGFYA
Experiment: SGLT2 assay: Na-dependent 14C-AMG uptake in CHO-K1 cells stably expressing human SGLT2
Details: 500 μM AMG, 2 hours at 37° C.
Measured attribute: IC50 (nM)

# example entries with known answers
Cpd smiles: COc1cc(C)c(Cc2ccc3c(c2)CC3)cc1[C@@H]1O[C@H](CO)C(F)(F)[C@H](O)[C@H]1O
Tgt: human SGLT2 (Homo sapiens)
IC50 (nM): 3
//
Cpd smiles: COc1cc(O)c([C@@H]2O[C@H](CO)[C@@H](O)[C@H](O)[C@H]2O)cc1Cc1ccc2c(c1)CC2
Tgt: human SGLT2 (Homo sapiens)
IC50 (nM): 1
//
Cpd smiles: Cc1c(Cc2ccc3c(c2)CC3)cc([C@@H]2O[C@H](CO)[C@@H](O)[C@H](O)[C@H]2O)c(O)c1I
Tgt: human SGLT2 (Homo sapiens)
IC50 (nM): 7

a: COc1cc(OC)c([C@@H]2O[C@H](CO)[C@@H](O)[C@H](O)[C@H]2O)cc1Cc1ccc2c(c1)CC2
b: [2H]C([2H])(c1ccc2c(c1)CC2)c1cc([C@@H]2O[C@H](CO)[C@@H](O)[C@H](O)[C@H]2O)c(OC)cc1CC
Which item exceeds the other in IC50, a or b ? Refer to your chosen item by its label in the answer.
b

a: [2H]C1([2H])Cc2cc(Cc3cc([C@@H]4O[C@H](CO)[C@@H](O)[C@H](O)[C@H]4O)ccc3C)ccc21
b: CCOc1cc(C)c(Cc2ccc3c(c2)CC3)cc1[C@@H]1O[C@H](CO)[C@@H](O)[C@H](O)[C@H]1O
For the pair a and b , which member has the lower IC50 number? Respond with the label that goes with your answer.
b

###

Molecular target: human SGLT1 (Homo sapiens, UniProt P13866)
Sequence (P13866 1-664): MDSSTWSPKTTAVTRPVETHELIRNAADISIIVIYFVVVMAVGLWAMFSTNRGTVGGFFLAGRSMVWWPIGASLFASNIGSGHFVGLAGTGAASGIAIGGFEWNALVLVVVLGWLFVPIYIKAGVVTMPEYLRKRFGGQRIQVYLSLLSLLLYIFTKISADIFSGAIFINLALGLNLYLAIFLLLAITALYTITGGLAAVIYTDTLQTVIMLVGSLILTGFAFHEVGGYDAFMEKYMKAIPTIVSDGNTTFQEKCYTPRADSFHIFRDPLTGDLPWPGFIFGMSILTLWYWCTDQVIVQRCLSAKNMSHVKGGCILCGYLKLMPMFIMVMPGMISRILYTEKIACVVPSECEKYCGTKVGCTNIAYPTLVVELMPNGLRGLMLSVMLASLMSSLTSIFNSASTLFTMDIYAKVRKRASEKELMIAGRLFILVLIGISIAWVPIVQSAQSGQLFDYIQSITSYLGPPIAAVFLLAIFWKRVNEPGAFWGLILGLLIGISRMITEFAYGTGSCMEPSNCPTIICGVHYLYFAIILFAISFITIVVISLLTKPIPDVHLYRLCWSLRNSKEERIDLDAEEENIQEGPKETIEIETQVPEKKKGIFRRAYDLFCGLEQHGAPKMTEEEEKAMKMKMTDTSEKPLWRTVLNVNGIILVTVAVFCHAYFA
Experiment: SGLT1 assay: Na-dependent 14C-AMG uptake in CHO-K1 cells stably expressing human SGLT1
Conditions: 500 μM AMG, 2 hours at 37° C.
pIC50: −log10 of the molar value.
Measured attribute: pIC50

P: [2H]C1([2H])Cc2cc(Cc3cc([C@@H]4O[C@H](CO)[C@@H](O)[C@H](O)[C@H]4O)ccc3Cl)ccc21 (single isomer, unassigned)
Q: [2H]C([2H])([2H])Oc1cc(CC)c(Cc2ccc3c(c2)CC3)cc1[C@@H]1O[C@H](CO)[C@@H](O)[C@H](O)[C@H]1O
R: N#Cc1cc(O)c([C@@H]2O[C@H](CO)[C@@H](O)[C@H](O)[C@H]2O)cc1Cc1ccc2c(c1)CC2
S: OC[C@H]1O[C@@H](c2ccc(C3CC3)c(Cc3ccc4c(c3)CC4)c2)[C@H](O)[C@@H](O)[C@@H]1O
Arrange the items listed above so that pIC50 rises from first to last. # the answer lists labels in the order requested
R, P, S, Q
(R: 6.72, P: 7.21, S: 7.49, Q: 7.89)

a: [2H]C([2H])(c1ccc2c(c1)CC2)c1cc([C@@H]2O[C@H](CO)[C@@H](O)[C@H](O)[C@H]2O)c(OC)cc1C
b: OC[C@H]1O[C@@H](c2cc(Cc3ccc4c(c3)CC4)c(C3CC3)cc2O)[C@H](O)[C@@H](O)[C@@H]1O
Which entry shows the lesser value of pIC50 here, a or b ? API: response body contains the label of the selected item.
a
